- experiment.notes: Serum stability of prodrugs (hydrolysis by rat serum)
- Format: in vitro ADME
- applied.conditions: 37° C., 2 hr
List of Conc. at t = 2 hr (prodrug) values.
Express your answer in µg/mL, writing the number without its unit.

Recorded results for 3 molecules are shown here.
| chem.smiles | units.of.measure | Conc. at t = 2 hr (prodrug) |
| --- | --- | --- |
| CSCC(=O)N[C@H]1Cc2cccc(C(=O)OCOC(=O)C(C)(C)C)c2OB1O | µg/mL | 1440 |
| CCC(CC)C(=O)OCOC(=O)c1cccc2c1OB(O)[C@@H](NC(=O)CSC)C2 | µg/mL | 1150 |
| CSCC(=O)N[C@H]1Cc2cccc(C(=O)OCOC(=O)OC(C)C)c2OB1O | µg/mL | 910 |

Please examine the following record next.
Query: // fetch Conc. at t = 2 hr (prodrug) given entry CCCC(=O)OCOC(=O)c1cccc2c1OB(O)[C@@H](NC(=O)CSC)C2
Reply: 1.94

The reported numbers originate from patent US9642869B2.
